# Experiment Description: reversed-phase LC retention time (C18, 15 min MeOH gradient); higher = more hydrophobic / later elution
# Applied Conditions: ionization mode: ESI+; ion species: [M+H]+
Entries annotated with measured reversed-phase LC retention time
Measure Name: reversed-phase LC retention time (min)

                                   molecule  number
0  CCN(CC)C(=O)c1cccc(C(=O)O)c1 [DEET carboxylic acid]    10.8
1  O=C(O)c1cn(C2CC2)c2cc(N3CCNCC3)c(F)cc2c1=O [Ciprofloxacin]    8.22
2   CSc1nc(NC2CC2)nc(NC(C)(C)C)n1 [Irgarol]    14.4
3    O=C1CC2(CCCCC2)CN1 [Gabapentin-Lactam]    11.2
4  CC(=O)Nc1ccc(S(=O)(=O)Nc2cc(C)on2)cc1 [Acetylsulfamethoxazole]    9.53
5  CCNC(=O)C(C)Oc1cccc2ccccc12 (stereo not given) [Desethyl-napropamide]      14
6  CCCCC(CC)COP(=O)(O)OCC(CC)CCCC (stereo not given) [Bis(2-ethylhexyl)phosphate]    19.8
7  CC(C)c1ccc(NC(=O)N(C)C)cc1 [Isoproturon]      13
8  CN(C)C(=O)NC1CCCCC1 [3-Cyclohexyl-1,1-dimethylurea]    10.8
9  Cc1nccn1CC1CCc2c(c3ccccc3n2C)C1=O (stereo not given) [Ondansetron]    9.49

----------
# Experiment Description: reversed-phase LC retention time (C18, 15 min MeOH gradient); higher = more hydrophobic / later elution
# Applied Conditions: ionization mode: ESI-; ion species: [M-H]-
Measure Name: reversed-phase LC retention time

Compound	Result
O=C1Nc2ccc(Cl)cc2C(C#CC2CC2)(C(F)(F)F)O1 (configuration not stated)	15.8 min
O=C(O)C1C(C(=O)O)C2(Cl)C(Cl)=C(Cl)C1(Cl)C2(Cl)Cl (configuration not stated)	10.3 min
O=C(NC(=O)c1c(F)cccc1F)Nc1ccc(Oc2ccc(C(F)(F)F)cc2Cl)cc1F	17.8 min
Oc1ccccc1-c1ccccc1	13.9 min
CCCCNS(=O)(=O)c1ccccc1 [N-Butylbenzenesulfonamide]	12.8 min
O=S(=O)(O)CCC(F)(F)C(F)(F)C(F)(F)C(F)(F)C(F)(F)C(F)(F)F	14.7 min
Nc1nc2c(ncn2COCCO)c(=O)[nH]1	3.13 min
Nc1ccc(S(=O)(=O)Nc2ccccn2)cc1	6.7 min
CCNc1nc(=O)nc(NC(C)(C)C)[nH]1 [Terbuthylazine-2-hydroxy]	12.4 min
Oc1cc(Cl)ccc1Oc1ccc(Cl)cc1	16.2 min
CC12CC1(C)C(=O)N(c1cc(Cl)cc(Cl)c1)C2=O (configuration not stated)	15 min
CC[C@@H](C(=O)[C@@H](C)[C@@H](O)[C@H](C)[C@@H]1O[C@@H]([C@@H](CC)C(=O)O)CC[C@@H]1C)[C@H]1O[C@]2(C=C[C@@H](O)[C@]3(CC[C@@](C)([C@H]4CC[C@](O)(CC)[C@H](C)O4)O3)O2)[C@H](C)C[C@@H]1C	18.5 min
NS(=O)(=O)c1cc2c(cc1Cl)NCNS2(=O)=O [Hydrochlorothiazide]	4.93 min
COc1ccc2c(c1)c(CC(=O)O)c(C)n2C(=O)c1ccc(Cl)cc1	13.8 min
CN(C)S(=O)(=O)c1ccc(N)cc1 [4-Amino-N,N-dimethylbenzenesulfonamide]	7.97 min
CNS(=O)(=O)c1ccccc1 [N-Methylbenzenesulfonamide]	8.4 min
O=S(=O)(O)C(F)(F)C(F)(F)C(F)(F)C(F)(F)C(F)(F)F	12.8 min
